Data provenance is patent US20230011916A1.

Biological target: T1, full-length human OX40 expressed on HuT78 cells (HuT78/OX40) (human, UniProt P43489 29-277)
T1 sequence: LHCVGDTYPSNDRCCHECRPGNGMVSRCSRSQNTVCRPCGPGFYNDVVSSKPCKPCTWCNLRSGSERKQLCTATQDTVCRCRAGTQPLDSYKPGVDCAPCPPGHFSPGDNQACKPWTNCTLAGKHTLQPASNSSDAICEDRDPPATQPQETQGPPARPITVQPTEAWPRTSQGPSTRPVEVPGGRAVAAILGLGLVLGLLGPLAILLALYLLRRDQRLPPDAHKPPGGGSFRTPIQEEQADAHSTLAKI
Assay: flow cytometry on live HuT78/OX40 cells; Test 1
Observed Property: EC50 (µg/mL)

{"Binder": "445-3 IgG4 (antibody, V domains shown) VH: QVQLVQSGAEVKKPGSSVKVSCKASGYKFTSYIIHWVRQAPGQGLEWMGYINPYNEGTRYNQKFQGRVTLTADKSTSTAYMELSSLRSEDTAVYYCARGYYGSSYAMDYWGQGTTVTVSS VL: DIQMTQSPSSLSASVGDRVTITCRASQGISNYLNWYQQKPDGAIKLLIYDASTLYSGVPSRFSGSGSGTDFTLTISSLQPEDFATYYCQQYSKLPYTFGGGTKVEIK", "Observed Property": "EC50", "Observed Measurement": 0.263}
{"Binder": "445-3 (antibody, V domains shown) VH: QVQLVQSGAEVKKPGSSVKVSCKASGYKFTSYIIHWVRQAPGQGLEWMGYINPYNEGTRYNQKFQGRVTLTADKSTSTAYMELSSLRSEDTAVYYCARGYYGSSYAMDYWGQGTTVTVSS VL: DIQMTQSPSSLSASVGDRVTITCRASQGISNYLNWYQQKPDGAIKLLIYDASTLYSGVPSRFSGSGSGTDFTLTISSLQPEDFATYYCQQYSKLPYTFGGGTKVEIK", "Observed Property": "EC50", "Observed Measurement": 0.337}
{"Binder": "ch445 (antibody, V domains shown, also called Mu445 variable domains fused to human IgG1wt/kappa constant regions) VH: EVQLQQSGPELVKPGASVKMSCKASGYKFTSYIIHWVKQKPGQGLEWIGYINPYNDGTRYNEKFKGKATLTSDKSSSTAYMEYSSLTSEDSAVYYCARGYYGSSYAMDYWGQGTSVTVSS VL: DIQMTQTTSSLSASLGDRVTISCSASQGISNYLNWYQQKPDGTIKLLIYDTSTLYSGVPSRFSGSGSGTDYFLTISNLEPEDIATYYCQQYSKLPYTFGGGTKLEKK", "Observed Property": "EC50", "Observed Measurement": 0.321}
{"Binder": "445-1 (antibody, V domains shown) VH: QVQLVQSGAEVKKPGSSVKVSCKASGYKFTSYIIHWVRQAPGQGLEWMGYINPYNDGTRYNQKFQGRVTLTSDKSTSTAYMELSSLRSEDTAVYYCARGYYGSSYAMDYWGQGTTVTVSS VL: DIQMTQSPSSLSASVGDRVTITCSASQGISNYLNWYQQKPGKAIKLLIYDTSTLYSGVPSRFSGSGSGTDYTLTISSLQPEDFATYYCQQYSKLPYTFGGGTKVEIK", "Observed Property": "EC50", "Observed Measurement": 0.293}
{"Binder": "445-2 (antibody, V domains shown) VH: QVQLVQSGAEVKKPGSSVKVSCKASGYKFTSYIIHWVRQAPGQGLEWMGYINPYNEGTRYAQKFQGRVTLTADKSTSTAYMELSSLRSEDTAVYYCARGYYGSSYAMDYWGQGTTVTVSS VL: DIQMTQSPSSLSASVGDRVTITCSASQGISNYLNWYQQKPGKAIKLLIYDASTLYSGVPSRFSGSGSGTDFTLTISSLQPEDFATYYCQQYSKLPYTFGGGTKVEIK", "Observed Property": "EC50", "Observed Measurement": 0.323}
